biological target: UniProt O43614; assay: Measurement of orexin type 2 receptor agonist activity (Experimental Example 2-1, FLIPR TETRA, intracellular Ca2+); type: cell-based; settings: CHO dhfr- cells expressing hOX2R; agonist activity, 10 nM human orexin B = 100%
Property name: EC50 (µM)
Dear colleague, please return just the value in µM, with no unit written.

Please review the following examples before continuing.
[
  {
    "Compound": "CC(C)[C@H]1CC[C@@H](OC[C@H]2[C@@H](NS(C)(=O)=O)CCCN2C(=O)COc2ccccc2)CC1 (relative stereo)",
    "EC50 (µM)": 1.3
  },
  {
    "Compound": "CC(=O)N1CCC[C@H](NS(C)(=O)=O)[C@@H]1CO[C@H]1CC[C@@H](c2ccccc2)CC1",
    "EC50 (µM)": 0.044
  },
  {
    "Compound": "Cc1nc(S(=O)(=O)N2CCC[C@H](NS(C)(=O)=O)[C@@H]2CO[C@H]2CC[C@@H](C(C)C)CC2)cn1C (relative stereo)",
    "EC50 (µM)": 1.3
  }
]

# context switch: different compound, same EC50
[in] Please give measured EC50 of the following entry: CC(=O)N1CCC[C@H](NS(C)(=O)=O)[C@@H]1CO[C@H]1CC[C@@H](c2cc(F)cc(F)c2)CC1
[out] 0.0056

---

In this section we review reported Emax values for a set of compounds.
Biological target: human orexin type 2 receptor (hOX2R) (Homo sapiens (Human), UniProt O43614)
Sequence (O43614 whole entry): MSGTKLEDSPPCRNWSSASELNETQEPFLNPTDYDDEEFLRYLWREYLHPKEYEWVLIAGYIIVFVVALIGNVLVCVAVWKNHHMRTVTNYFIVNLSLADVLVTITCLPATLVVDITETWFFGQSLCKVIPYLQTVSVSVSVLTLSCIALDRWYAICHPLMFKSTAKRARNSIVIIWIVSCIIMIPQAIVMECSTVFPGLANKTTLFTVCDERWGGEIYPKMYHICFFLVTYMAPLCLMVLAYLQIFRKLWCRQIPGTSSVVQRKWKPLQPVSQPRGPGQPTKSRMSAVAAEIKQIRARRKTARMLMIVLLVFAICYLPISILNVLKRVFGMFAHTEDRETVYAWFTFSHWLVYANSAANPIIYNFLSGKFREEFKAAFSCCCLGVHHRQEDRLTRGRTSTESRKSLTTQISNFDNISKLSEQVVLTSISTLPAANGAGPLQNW
Experiment: Measurement of orexin type 2 receptor agonist activity (Experimental Example 2-1, FLIPR TETRA, intracellular Ca2+)
Format: cell-based
Settings: CHO dhfr- cells expressing hOX2R, FLIPR TETRA, Fluo-4AM; read-out: Emax (%)
From the text: To obtain a cell clone stably expressing human orexin type 2 receptor, human orexin type 2 receptor cDNA was inserted into pcDNA3.1(+) plasmid vector (Invitrogen), and a plasmid DNA for expression of human orexin type 2 receptor (pcDNA3.1(+)/hOX2R) was cloned. The plasmid DNA was introduced into CHO-dhfr cell by an electroporation method, and human orexin type 2 receptor expressing clone cells were obtained by limiting dilution method by using G418 drug resistance as a selection marker. […]
Dear colleague, please return just the value in %, with no unit written.

[
  {
    "Compound": "CCNC(=O)N1CCC[C@H](NS(C)(=O)=O)[C@@H]1CO[C@H]1CC[C@@H](c2ccccc2C(F)(F)F)CC1 (relative stereo)",
    "Property name": "Emax",
    "Endpoint unit": "%",
    "Measured": 99
  },
  {
    "Compound": "CS(=O)(=O)N[C@H]1CCCN(C(=O)Cc2nccs2)[C@H]1CO[C@H]1CC[C@@H](c2ccccc2)CC1 (relative stereo)",
    "Property name": "Emax",
    "Endpoint unit": "%",
    "Measured": 91
  },
  {
    "Compound": "COC(=O)N1CCC[C@H](NS(C)(=O)=O)[C@@H]1CO[C@H]1CC[C@@H](c2cc(F)cc(F)c2)CC1",
    "Property name": "Emax",
    "Endpoint unit": "%",
    "Measured": 97
  },
  {
    "Compound": "CS(=O)(=O)N[C@H]1CCCN(C(=O)C2CC2)[C@H]1CO[C@H]1CC[C@@H](c2ccccc2OC(F)(F)F)CC1 (relative stereo)",
    "Property name": "Emax",
    "Endpoint unit": "%",
    "Measured": 95
  },
  {
    "Compound": "CCc1ccccc1[C@H]1CC[C@@H](OC[C@@H]2NCCC[C@@H]2NS(C)(=O)=O)CC1 (relative stereo)",
    "Property name": "Emax",
    "Endpoint unit": "%",
    "Measured": 98
  },
  {
    "Compound": "COc1cccc([C@H]2CC[C@@H](OC[C@@H]3NCCC[C@@H]3NS(C)(=O)=O)CC2)c1 (relative stereo)",
    "Property name": "Emax",
    "Endpoint unit": "%",
    "Measured": 95
  },
  {
    "Compound": "CS(=O)(=O)N[C@H]1CCCN[C@H]1CO[C@H]1CC[C@@H](c2ccccc2Cl)CC1 (relative stereo)",
    "Property name": "Emax",
    "Endpoint unit": "%",
    "Measured": 93
  },
  {
    "Compound": "COC(=O)N1CCC[C@H](NS(C)(=O)=O)[C@@H]1CO[C@H]1C[C@@H](c2ccccc2)C1 (relative stereo)",
    "Property name": "Emax",
    "Endpoint unit": "%",
    "Measured": 81
  }
]

[in] Please give measured Emax of the following entry: CN(C)S(=O)(=O)N[C@H]1CCCN(C(=O)OCC(F)(F)F)[C@H]1COC1CCN(c2ncccn2)CC1 (relative stereo)
[out] 103

[in] Please give measured Emax of the following entry: CS(=O)(=O)N[C@H]1CCCN[C@H]1COC1CCC(F)(c2cc(F)cc(F)c2)CC1 (relative stereo)
[out] 75

[in] Please give measured Emax of the following entry: CN(C)CC(=O)N1CCC[C@H](NS(C)(=O)=O)[C@@H]1CO[C@H]1CC[C@@H](c2ccccc2)CC1 (relative stereo)
[out] 97

[in] Please give measured Emax of the following entry: CS(=O)(=O)N[C@H]1CCCN(C(=O)C2CCC(F)(F)CC2)[C@H]1COC1CCN(c2ccccc2F)CC1 (relative stereo)
[out] 91

[in] Please give measured Emax of the following entry: CS(=O)(=O)N[C@H]1CCCN(C(=O)OC2CC2)[C@H]1CO[C@H]1CC[C@@H](c2cccc(F)c2)CC1
[out] 96

---

target: human orexin type 2 receptor (hOX2R) (Homo sapiens (Human), UniProt O43614); test: Measurement of orexin type 2 receptor agonist activity (Experimental Example 2-1, FLIPR TETRA, intracellular Ca2+); type: cell-based; conditions: CHO dhfr- cells expressing hOX2R, FLIPR TETRA, Fluo-4AM
In this section we review reported EC50 values for a set of compounds.
Dear colleague, please return just the value in nM, with no unit written.

Please review the following examples before continuing.
[
  {
    "Compound": "CS(=O)(=O)N[C@H]1CCCN(C(=O)C2CC(=O)C2)[C@H]1COC1CCN(c2ccccc2F)CC1 (relative stereo)",
    "Endpoint unit": "nM",
    "EC50": 5000
  },
  {
    "Compound": "CS(=O)(=O)N[C@H]1CCCN(C(=O)OCC(F)(F)F)[C@H]1COC1CCN(c2ncccn2)CC1 [Example 305]",
    "Endpoint unit": "nM",
    "EC50": 53
  },
  {
    "Compound": "CS(=O)(=O)N[C@H]1CCCN[C@H]1CO[C@H]1CC[C@@H](c2cc(F)cc(F)c2F)CC1",
    "Endpoint unit": "nM",
    "EC50": 280
  },
  {
    "Compound": "CS(=O)(=O)N[C@H]1CCCN(C(=O)C2(O)CC2)[C@H]1CO[C@H]1CC[C@@H](c2ccccc2)CC1 (relative stereo)",
    "Endpoint unit": "nM",
    "EC50": 45
  },
  {
    "Compound": "CS(=O)(=O)N[C@H]1CCCN(C(=O)CO)[C@H]1CO[C@H]1CC[C@@H](c2ccccc2C(F)(F)F)CC1",
    "Endpoint unit": "nM",
    "EC50": 8.9
  },
  {
    "Compound": "COc1cccc([C@H]2CC[C@@H](OC[C@@H]3NCCC[C@@H]3NS(C)(=O)=O)CC2)c1 (relative stereo)",
    "Endpoint unit": "nM",
    "EC50": 3000
  }
]

# context switch: different compound, same EC50
[in] Please give measured EC50 of the following entry: CCNC(=O)N1CCC[C@H](NS(C)(=O)=O)[C@@H]1COC1CCC(OC)CC1 (relative stereo)
[out] 2600

---

molecular target: human orexin type 2 receptor (hOX2R) (Homo sapiens (Human), UniProt O43614); test: Measurement of orexin type 2 receptor agonist activity (Experimental Example 2-1, FLIPR TETRA, intracellular Ca2+); format: cell-based; settings: CHO dhfr- cells expressing hOX2R, FLIPR TETRA, Fluo-4AM; read-out: Emax (%)
In this section we review reported Emax values for a set of compounds.
Dear colleague, please return just the value in %, with no unit written.

Please review the following examples before continuing.
[
  {
    "Compound": "CC(=O)N1CCC[C@H](NS(C)(=O)=O)[C@@H]1CO[C@H]1CC[C@@H](c2cc(F)cc(F)c2F)CC1",
    "Emax, %": 97
  },
  {
    "Compound": "CCNC(=O)N1CCC[C@H](NS(C)(=O)=O)[C@@H]1CO[C@H]1CC[C@@H](c2cccc(F)c2)CC1",
    "Emax, %": 103
  },
  {
    "Compound": "CC(OC(=O)N1CCC[C@H](NS(=O)(=O)N(C)C)[C@@H]1COC1CCN(c2ncccn2)CC1)C(F)(F)F (relative stereo)",
    "Emax, %": 91
  },
  {
    "Compound": "COC(=O)N1CCC[C@H](NS(C)(=O)=O)[C@@H]1CO[C@H]1CC[C@@H](c2cccc(F)c2)CC1",
    "Emax, %": 95
  },
  {
    "Compound": "CS(=O)(=O)N[C@H]1CCCN(C(=O)C2CC2)[C@H]1CO[C@H]1CC[C@@H](c2cc(F)cc(F)c2F)CC1",
    "Emax, %": 97
  },
  {
    "Compound": "COc1ccccc1[C@H]1CC[C@@H](OC[C@H]2[C@@H](NS(C)(=O)=O)CCCN2C(C)=O)CC1",
    "Emax, %": 98
  },
  {
    "Compound": "CS(=O)(=O)N[C@H]1CCCN(C(=O)C2CC2)[C@H]1COC1CCN(c2ccccc2)CC1 (relative stereo)",
    "Emax, %": 102
  },
  {
    "Compound": "CC(=O)N1CCC[C@H](NS(C)(=O)=O)[C@@H]1CO[C@H]1CC[C@@H](c2c(C)cccc2C)CC1 (relative stereo)",
    "Emax, %": 37
  }
]

[in] Please give measured Emax of the following entry: CS(=O)(=O)N[C@H]1CCCN(C(=O)[C@@H]2C[C@@H]2F)[C@H]1COC1CCN(c2ccccc2F)CC1
[out] 96

[in] Please give measured Emax of the following entry: CS(=O)(=O)N[C@H]1CCCN(C(=O)C2CC2)[C@H]1CO[C@H]1CC[C@@H](c2ccccc2F)CC1
[out] 103
